Ref: PubChem BioAssay (NCI)

System: MALME-3M melanoma
Assay: NCI tumour cell line growth inhibition, 48 h
Listing of entries alongside the reported TGI.

Worked examples, 3 compounds total:
INPUT: Bench note: what TGI did "CC1(C)CC(=O)c2c(nc3c4c([nH]c(-c5ccc([N+](=O)[O-])cc5)c24)CC(C)(C)C3)C1" show?
OUTPUT: > 100 µM

INPUT: Another: O=C(O)C1CCC(=O)N1C(=O)C(Cl)c1ccccc1 (centres undefined)
OUTPUT: > 100 µM

INPUT: Record: "CCOC(=O)/C(=C/c1ccc(C(F)(F)F)cc1)N(CC)CC"
OUTPUT: > 100 µM

***
INPUT: Sample "Nc1nc2c(c(=O)[nH]1)CN(CCCN1CCOCC1)CN2" — what was its TGI?
OUTPUT: > 100 µM

INPUT: Next entry: "C[C@@H](CO)C1=C(O)c2ccc3c(c2C(=O)C1=O)CCCC3(C)C"
OUTPUT: 50 µM

INPUT: Another: "CCOC(=O)C1=C(C)NC(C)=C(C(=O)OCC)C1c1ccc(Cl)cc1"
OUTPUT: 34.6 µM

INPUT: Try "Cn1c(-c2cccc(N)c2)[n+](C)c2ccccc21" next.
OUTPUT: > 100 µM

INPUT: Okay, and "O=C1c2ccccc2C(=O)N1CCCC(=O)n1cc(F)c(=O)[nH]c1=O" ?
OUTPUT: > 100 µM

INPUT: One more compound: "CC(=O)OCCn1c(Cc2ccc(C)cc2)nn(C(C)=O)c1=O"
OUTPUT: > 100 µM

INPUT: Then "Nc1nc(N)c2ncn(-c3ccc(Br)cc3)c2n1" ?
OUTPUT: > 44.9 µM

INPUT: # iterate: "COc1ccc(NC(=O)NS(=O)(=O)c2ccc(C)cc2)nn1"
OUTPUT: > 100 µM

INPUT: Then this compound: "Nc1ccc(C(=O)N/C(=C\C=C\c2ccco2)c2nc3c4c(ccc3[nH]2)C(=O)c2ccccc2C4=O)cc1"
OUTPUT: > 100 µM

INPUT: Please answer likewise for O=C(CC1(O)C(=O)Nc2ccccc21)c1ccc2ccccc2c1 (centres undefined)
OUTPUT: > 100 µM

INPUT: For "COC(=O)c1c(C)c2n(c1C)C(=O)C(c1ccccc1)=C2" then?
OUTPUT: > 100 µM
